target: ABHD6 (Mus musculus); assay: In vitro competitive activity-based protein profiling (Table 2, % inhibition at 1 μM); type: biochemical; conditions: read-out: % Inhibition at 1 μM ABHD6
Sequence (Q8R2Y0 whole entry): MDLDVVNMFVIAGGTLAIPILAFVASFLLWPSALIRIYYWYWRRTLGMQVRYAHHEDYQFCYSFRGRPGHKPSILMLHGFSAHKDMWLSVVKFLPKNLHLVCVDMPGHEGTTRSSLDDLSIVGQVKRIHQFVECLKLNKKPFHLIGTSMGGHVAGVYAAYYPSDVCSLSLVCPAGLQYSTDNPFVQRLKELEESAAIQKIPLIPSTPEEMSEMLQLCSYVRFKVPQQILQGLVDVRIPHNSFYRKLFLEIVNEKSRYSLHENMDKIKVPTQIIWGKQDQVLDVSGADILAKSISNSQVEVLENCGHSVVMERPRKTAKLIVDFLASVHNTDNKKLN

[
  {
    "compound": "CN1CCN(c2c(Cl)cccc2CN2CC3CN(C(=O)OC(C(F)(F)F)C(F)(F)F)CC3C2)CC1 (centres unmarked)",
    "target or system": "ABHD6 (Mus musculus)",
    "inhibition at 1 µM": "< 25%"
  },
  {
    "compound": "CCn1cc(CN2CC3CN(C(=O)OC(C(F)(F)F)C(F)(F)F)CC3C2)c(-c2cccc(N3CCOCC3)c2)n1 (centres unmarked)",
    "target or system": "ABHD6 (Mus musculus)",
    "inhibition at 1 µM": "< 25%"
  },
  {
    "compound": "CC(=O)N1CCN(c2cc(Cl)ccc2CN2CC3CN(C(=O)OC(C(F)(F)F)C(F)(F)F)CC3C2)CC1 (centres unmarked)",
    "target or system": "ABHD6 (Mus musculus)",
    "inhibition at 1 µM": "25 to 75%"
  },
  {
    "compound": "CCn1cc(CN2CC3CN(C(=O)OC(C(F)(F)F)C(F)(F)F)CC3C2)c(-c2cccc(N3CCC3)c2)n1 (centres unmarked)",
    "target or system": "ABHD6 (Mus musculus)",
    "inhibition at 1 µM": "25 to 75%"
  },
  {
    "compound": "O=C(OC(C(F)(F)F)C(F)(F)F)N1CC2CN(Cc3ccc(Cl)cc3N3CCC4(CCOCC4)C3)CC2C1 (centres unmarked)",
    "target or system": "ABHD6 (Mus musculus)",
    "inhibition at 1 µM": "< 25%"
  }
]

====

Biological target: Mouse brain MAGL (Mus musculus, UniProt O35678)
Construct: from tissue; host or cells: brain of wild-type C57Bl/6J mice dosed by oral gavage
Sequence (O35678 whole entry): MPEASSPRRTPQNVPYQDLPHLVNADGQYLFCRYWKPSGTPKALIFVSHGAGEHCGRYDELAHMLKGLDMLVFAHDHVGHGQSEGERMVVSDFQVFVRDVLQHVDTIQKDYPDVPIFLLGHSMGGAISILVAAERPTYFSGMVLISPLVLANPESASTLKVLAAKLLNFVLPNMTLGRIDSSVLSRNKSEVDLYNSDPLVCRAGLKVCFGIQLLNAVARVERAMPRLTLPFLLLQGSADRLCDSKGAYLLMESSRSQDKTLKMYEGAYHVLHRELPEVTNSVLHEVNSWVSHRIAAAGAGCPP
Test: Mouse brain proteomes from inhibitor treated mice (oral gavage, ABPP analysis)
Assay type: in vivo
Details: p.o., sacrificed 4 h following administration
Method: After 30 min, FP—Rh (1.0 μL, 50 μM in DMSO) was added and the mixture was incubated for another 30 min at 37° C. Reactions were quenched with SDS loading buffer (50 μL-4×) and run on SDS-PAGE. Following gel imaging, serine hydrolase activity was determined by measuring fluorescent intensity of gel bands corresponding to MAGL, ABHD6 and FAAH using ImageJ 1.43 u software. Inhibitors were administered to wild-type C57Bl/6J by oral gavage in a vehicle of polyethylene glycol. […]

[
  {
    "compound": "CC(C)c1cc(CN2CC3CN(C(=O)OC(C(F)(F)F)C(F)(F)F)CC3C2)n(C2CCCCC2)n1 (stereo not shown) [Example 61]",
    "inhibition at 5 mg/kg": "≥ 75%"
  },
  {
    "compound": "CCn1cc(CN2CC3CN(C(=O)OC(C(F)(F)F)C(F)(F)F)CC3C2)c(-c2cccc(N3CCCC3)c2)n1 (stereo not shown) [Example 64]",
    "inhibition at 5 mg/kg": "25 to 75%"
  },
  {
    "compound": "CC(=O)N1CCN(c2cc(C(C)C)ccc2CN2CC3CN(C(=O)OC(C(F)(F)F)C(F)(F)F)CC3C2)CC1 (stereo not shown) [Example 24]",
    "inhibition at 5 mg/kg": "≤ 25%"
  },
  {
    "compound": "Cc1c(CN2CC3CN(C(=O)OC(C(F)(F)F)C(F)(F)F)CC3C2)cccc1N1CCCCC1 (stereo not shown) [Example 29]",
    "inhibition at 5 mg/kg": "≤ 25%"
  },
  {
    "compound": "O=C(OC(C(F)(F)F)C(F)(F)F)N1CC2CN(Cc3cccc(N4CCOCC4)c3C(F)(F)F)CC2C1 (stereo not shown) [Example 129]",
    "inhibition at 5 mg/kg": "≥ 75%"
  },
  {
    "compound": "CCc1cc(CN2CC3CN(C(=O)OC(C(F)(F)F)C(F)(F)F)CC3C2)n(-c2ccccc2Cl)n1 (stereo not shown) [Example 169]",
    "inhibition at 5 mg/kg": "≤ 25%"
  },
  {
    "compound": "CS(=O)(=O)N1CCC2(CCN(c3ccccc3CN3CC4CN(C(=O)OC(C(F)(F)F)C(F)(F)F)CC4C3)C2)C1 (stereo not shown) [Example 134]",
    "inhibition at 5 mg/kg": "≤ 25%"
  },
  {
    "compound": "O=C(OC(C(F)(F)F)C(F)(F)F)N1CC2CN(Cc3ccc(Cl)cc3N3CCOC4CCCC43)CC2C1 (stereo not shown) [Example 4]",
    "inhibition at 5 mg/kg": "≤ 25%"
  },
  {
    "compound": "O=C(OC(C(F)(F)F)C(F)(F)F)N1CC2CN(Cc3ccc(Cl)cc3N3CC4CCC(C3)O4)CC2C1 (stereo not shown) [Example 3]",
    "inhibition at 5 mg/kg": "≤ 25%"
  },
  {
    "compound": "O=C(OC(C(F)(F)F)C(F)(F)F)N1CC2CN(Cc3cccc(Cl)c3N3CCC(F)CC3)CC2C1 (stereo not shown) [Example 159]",
    "inhibition at 5 mg/kg": "≤ 25%"
  },
  {
    "compound": "CCn1cc(CN2CC3CN(C(=O)OC(C(F)(F)F)C(F)(F)F)CC3C2)c(-c2cccc(N3CCCCC3)c2)n1 (stereo not shown) [Example 132]",
    "inhibition at 5 mg/kg": "≤ 25%"
  },
  {
    "compound": "CS(=O)(=O)N1CCN(c2cc(Cl)ccc2CN2CC3CN(C(=O)OC(C(F)(F)F)C(F)(F)F)CC3C2)CC1 (stereo not shown) [Example 36]",
    "inhibition at 5 mg/kg": "25 to 75%"
  },
  {
    "compound": "Cc1cc(CN2CC3CN(C(=O)OC(C(F)(F)F)C(F)(F)F)CC3C2)n(C2CCCCC2)n1 (stereo not shown) [Example 58]",
    "inhibition at 5 mg/kg": "≥ 75%"
  },
  {
    "compound": "CCn1cc(CN2CC3CN(C(=O)OC(C(F)(F)F)C(F)(F)F)CC3C2)c(-c2ccccc2N2CCCCC2)n1 (stereo not shown) [Example 130]",
    "inhibition at 5 mg/kg": "≤ 25%"
  },
  {
    "compound": "CCn1cc(CN2CC3CN(C(=O)OC(C(F)(F)F)C(F)(F)F)CC3C2)c(-c2cccc(N3CCOCC3)c2)n1 (stereo not shown) [Example 65]",
    "inhibition at 5 mg/kg": "≤ 25%"
  },
  {
    "compound": "O=C(OC(C(F)(F)F)C(F)(F)F)N1CC2CN(Cc3ccc(Cl)cc3N3CCC4(CCNC4=O)CC3)CC2C1 (stereo not shown) [Example 38]",
    "inhibition at 5 mg/kg": "≤ 25%"
  },
  {
    "compound": "CCn1cc(CN2CC3CN(C(=O)OC(C(F)(F)F)C(F)(F)F)CC3C2)c(-c2cccnc2)n1 (stereo not shown) [Example 71]",
    "inhibition at 5 mg/kg": "25 to 75%"
  },
  {
    "compound": "Cc1c(CN2CC3CN(C(=O)OC(C(F)(F)F)C(F)(F)F)CC3C2)cccc1N1CCOCC1 (stereo not shown) [Example 47]",
    "inhibition at 5 mg/kg": "≥ 75%"
  },
  {
    "compound": "Cc1ccc(CN2CC3CN(C(=O)OC(C(F)(F)F)C(F)(F)F)CC3C2)c(-c2ccccc2)c1 (stereo not shown) [Example 207]",
    "inhibition at 5 mg/kg": "≥ 75%"
  }
]
